I'd appreciate it if you could supply pIC50 values for the items below.
# System: Staphylococcus aureus MW2 (mecA+)
# protocol-notes: IC50 (growth, competition assay)
# test-parameters: fluorescent label: DsRed; cefoxitin: subinhibitory
Counter-ions that a name gives are not always drawn.
Note: pIC50 values are expressed as the negative base-10 logarithm of concentration in M.

Measured pIC50 of CNc1nc(-c2ccc3c(N)n[nH]c3c2)cc(N2C[C@@H](C(=O)NC3CCCCC3)CC[C@H]2C)n1 : 3.95

Measured pIC50 of Cn1nnnc1SCC1=C(C(=O)O)N2C(=O)[C@@H](NC(=O)[C@H](O)c3ccccc3)[C@H]2SC1 [CEFAMANDOLE SODIUM] : 4.27

Measured pIC50 of C[C@H]1COC2=C1C(=O)C(=O)c1c2ccc2c1CCCC2(C)C [CRYPTOTANSHINONE] : 4.89

Measured pIC50 of O=C1[C@H](CC[C@H](O)c2ccc(F)cc2)[C@@H](c2ccc(O)cc2)N1c1ccc(F)cc1 [Ezetimibe (Zetia)] : 4.10

Measured pIC50 of CO[C@@]1(NC(=O)C2SC(=C(C(N)=O)C(=O)O)S2)C(=O)N2C(C(=O)O)=C(CSc3nnnn3C)CS[C@@H]21 (stereo partly drawn) : 4.83

Measured pIC50 of CN[C@H]1CC[C@@H](c2ccc(Cl)c(Cl)c2)c2ccccc21 [ZOLOFT] : 3.99

Measured pIC50 of O=C(O)c1ccccc1Nc1cccc(C(F)(F)F)c1 : 4.77

Measured pIC50 of COc1cccc2c1[C@@H]1CN(CCCCn3c(=O)[nH]c4c(sc5ncc(-c6ccccc6)nc54)c3=O)C[C@@H]1CO2 [Fiduxosin hydrochloride] : 4.54
